- Experimental Target: T1, human MUC1-C on stably transfected cells (human, UniProt P15941 961-1255, limits assumed)
- T1 construct: domain: MUC1-C; the cell line of each value is named under assay; also called HCC827-human-MUC1-C cells; CHOK1-human-MUC1-C cells
- T1 sequence (P15941 961-1255 limits assumed): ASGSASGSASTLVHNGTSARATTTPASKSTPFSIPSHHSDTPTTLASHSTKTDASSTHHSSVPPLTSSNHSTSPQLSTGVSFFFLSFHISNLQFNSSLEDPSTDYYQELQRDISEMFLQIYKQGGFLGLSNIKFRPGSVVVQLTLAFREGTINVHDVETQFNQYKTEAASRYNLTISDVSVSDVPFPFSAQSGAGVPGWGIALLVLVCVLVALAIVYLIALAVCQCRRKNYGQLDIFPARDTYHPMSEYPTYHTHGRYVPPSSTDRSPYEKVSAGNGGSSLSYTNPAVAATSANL
- Method: FACS, HCC827-human-MUC1-C, Test 2
Measurement Label: Emax
# respond with the number and nothing more

Give the measured Emax of M6-H7L3 (antibody, human IgG1, kappa, V domains shown, humanized, human IgG1) VH: EVQLVQSGAEVKKPGASVKVSCKASGYRFIPYWIEWVRERPGHGLEWMGEILPGTGRTNYNEKFKGRVTFTADTSTNTVYMELSSLTNEDTAVYYCARYGEDTSGGYYAVDYWGQGTTVTVSS VL: DIVMTQSPATLSLSPGERATLSCRASESVNILGTNLIHWYQQKPGQAPKLLIYHASNLETGIPARFSGSGSRTDFTLTISSLEPEDVAVYYCLQSRKIPWTFGGGTKVEIKR . 48900

Please look up its Emax: M6-H2L2 (antibody, human IgG1, kappa, V domains shown, humanized, human IgG1) VH: EVQLVQSGAEVKKPGASVKVSCKASGYRFIPYWIEWVRQAPGQGLEWMGEILPGTGRTNYNEKFKGRVTFTADTSTNTVYMELSSLRSEDTAVYYCARYGDDTSGGYYAVDYWGQGTTVTVSS VL: EIVLTQSPATLSLSPGERATLSCRASESVNILGTNLIHWYQQKPGQAPKLLIYHASNLETGIPARFSGSGSRTDFTLTISSLEPEDFAVYYCLQSRKIPWTFGGGTKVEIKR 92700

Which Emax is listed for M6-H5L3 (antibody, human IgG1, kappa, V domains shown, humanized, human IgG1) VH: EVQLVQSGAEVKKPGASVKVSCKASGYRFIPYWIEWVRERPGHGLEWMGEILPGTGRTNYNEKFKGRVTFTADTSTNTVYMELSSLTSEDTAVYYCARYGEDTSGGYYAVDYWGQGTTVTVSS VL: DIVMTQSPATLSLSPGERATLSCRASESVNILGTNLIHWYQQKPGQAPKLLIYHASNLETGIPARFSGSGSRTDFTLTISSLEPEDVAVYYCLQSRKIPWTFGGGTKVEIKR ? 73000

I'd like to know its Emax. The binder in question is M6-H7L2 (antibody, human IgG1, kappa, V domains shown, humanized, human IgG1) VH: EVQLVQSGAEVKKPGASVKVSCKASGYRFIPYWIEWVRERPGHGLEWMGEILPGTGRTNYNEKFKGRVTFTADTSTNTVYMELSSLTNEDTAVYYCARYGEDTSGGYYAVDYWGQGTTVTVSS VL: EIVLTQSPATLSLSPGERATLSCRASESVNILGTNLIHWYQQKPGQAPKLLIYHASNLETGIPARFSGSGSRTDFTLTISSLEPEDFAVYYCLQSRKIPWTFGGGTKVEIKR 78400
